Assay: inhibitors of GR-EGFP nuclear translocation, primary screen, dynein cargo transport inhibitor project, imaging, high-content, 3617.4 mouse cells (AID 1381)
Settings: at 20 µM, stronger effect = lower value, stimulated with dexamethasone, 1 µM
The campaign covered roughly 220,000 compounds. About 1,000 (0.45%) were called active. Shown is part of a subset that was picked to be rich in actives.
Lab note - cut at -0.6 for z-score: YES if strictly below, NO if not.

Recorded results for 2 molecules are shown here.
molecule=Cn1c2ccccc2c(=O)c2c(=O)n(Cc3ccco3)c(COc3ccccc3)nc21 label_class=NO
molecule=Cc1c(C#N)c(NC(=O)c2ccccc2)n(Cc2ccccc2)c1C label_class=NO

Req: Record Cc1ccc(CNC(=O)Cn2c(=O)c3sccc3n(Cc3cccc([N+](=O)[O-])c3)c2=O)cc1 : is its z-score strictly below -0.6?
Resp: YES

Req: Record CC(=O)c1cc(C#N)c(SCC(=O)Nc2nccs2)nc1C : is its z-score strictly below -0.6?
Resp: NO

Req: Record COc1cc(/C=N\NC(=O)CNC(=O)c2cccc([N+](=O)[O-])c2)ccc1O : is its z-score strictly below -0.6?
Resp: NO

Req: Record Cc1cc(NC(=O)CSc2nc3cc(Cl)ccc3c(=O)n2Cc2ccco2)no1 : is its z-score strictly below -0.6?
Resp: NO

Req: Record O=C(CSc1nnc(-c2cccnc2)n1Cc1ccco1)c1ccc(Cl)cc1 : is its z-score strictly below -0.6?
Resp: NO

Req: Record O=C(Nc1ccn(Cc2ccccc2)n1)c1n[nH]c([N+](=O)[O-])c1Cl : is its z-score strictly below -0.6?
Resp: NO

Req: Record CCOc1ccc(C(C)=O)cc1CSc1nnc(-c2ccncc2)n1CCOC : is its z-score strictly below -0.6?
Resp: NO

Req: Record CC(=O)NC1(c2ccc(F)cc2)CCN(C(=O)c2c(F)cccc2F)CC1 : is its z-score strictly below -0.6?
Resp: NO

Req: Record O=C(NCC1CCCO1)c1cc(-c2ccccc2)nc2ccccc12 (configuration not stated) : is its z-score strictly below -0.6?
Resp: NO

----------
Assay: inhibitors of GR-EGFP nuclear translocation, primary screen, dynein cargo transport inhibitor project, imaging, high-content, 3617.4 mouse cells (AID 1381)
Settings: measured here: cytoplasmic GR-EGFP intensity, at 20 µM, stronger effect = higher value, stimulated with dexamethasone, 1 µM
Screen size: about 220,000 compounds; about 1,000 (0.45%) were called active. The entries come from a sample that favours actives as a whole.
QUANTITY KIND: z-score
Would you mind answering with just the numeric figure?

compound=O=c1[nH]c(N2CCN(Cc3ccc4c(c3)OCO4)CC2)nc2c1CCCC2 quantity_kind=z-score quantitative_result=-0.309
compound=O=C(NCCc1ccccc1)Oc1ccc(Cl)cc1 quantity_kind=z-score quantitative_result=-0.223
compound=Cc1ccc(Cl)cc1N1CCN(C(=O)c2cccc3c(=O)c(C)c(-c4ccccc4)oc23)CC1 quantity_kind=z-score quantitative_result=-0.179
compound=COc1ccc(-c2noc(-c3cccc(OC)c3OC)n2)cc1OC quantity_kind=z-score quantitative_result=-0.0658
compound=O=C(Nc1ccn(Cc2ccccc2)n1)c1n[nH]c([N+](=O)[O-])c1Cl quantity_kind=z-score quantitative_result=-0.194
compound=COc1ccc(Cl)cc1-n1c(C)cc(C(=O)OCC(=O)N2CC(=O)Nc3ccccc32)c1C quantity_kind=z-score quantitative_result=-0.291

Req: Query (compound): COc1ccc(CCNC(=O)C(Sc2ccccn2)c2ccccc2)cc1OC (stereo unspecified) ; field requested: z-score
Resp: -0.00233

Req: Query (compound): Cc1cc(NC(=O)Nc2ccc(Cl)cc2)n(-c2ccccc2)n1 ; field requested: z-score
Resp: -0.229

Req: Query (compound): Cc1ccc(CN2CCC(N3CCC(C(=O)NCC4CCCO4)CC3)CC2)o1 (stereo unspecified) ; field requested: z-score
Resp: -0.27

Req: Query (compound): CCc1cccc(NC(=O)CCC(=O)O)c1 ; field requested: z-score
Resp: -0.309

Req: Query (compound): O=C(CCl)Nc1ccc(Sc2ccc(NC(=O)CCl)cc2)cc1 ; field requested: z-score
Resp: 0.25

----------
Test: inhibitors of GR-EGFP nuclear translocation, primary screen, dynein cargo transport inhibitor project, imaging, high-content, 3617.4 mouse cells (AID 1381)
Details: measured here: cell count per field, at 20 µM, stimulated with dexamethasone, 1 µM
Out of some 220,000 compounds screened, about 1,000 (0.45%) were called active. For the sample, actives were picked, then their nearest neighbours and some compounds at random.
QUANTITY KIND: z-score
Would you mind answering with just the numeric figure?

Some solved entries appear below for comparison.
molecule=Cc1cc(-c2n[nH]c(=S)n2/N=C/c2ccco2)n[nH]1 quantitative_result=-0.499
molecule=S=c1[nH]nc(-c2cccnc2)n1/N=C/C(Cl)=C\c1ccccc1 quantitative_result=-1.55
molecule=Cc1cc(-c2n[nH]c(=S)n2/N=C/C(Br)=C/c2ccccc2)n[nH]1 quantitative_result=-1.17

Req: Query (molecule): CC(C)(C)OC(=O)NCCCCCC(=O)N/N=C/c1coc2ccccc2c1=O ; field requested: z-score
Resp: -0.0505

Req: Query (molecule): COc1ccc(C2/C=C\CN(S(=O)(=O)c3cccs3)CC(=O)N2Cc2ccc(F)cc2)cc1 (stereo not drawn) ; field requested: z-score
Resp: -0.515

Req: Query (molecule): C=CCOC(=O)C1=C[C@@H](c2ccccc2)C[C@@H](OCc2ccc(CO)cc2)O1 ; field requested: z-score
Resp: -0.581

Req: Query (molecule): COc1ccc(NC(=O)CN(Cc2ccccc2)S(C)(=O)=O)cc1OC ; field requested: z-score
Resp: -0.496

Req: Query (molecule): O=[N+]([O-])c1cc(S(=O)(=O)CCCN2CCOCC2)ccc1F ; field requested: z-score
Resp: 0.317

----------
Test: inhibitors of GR-EGFP nuclear translocation, primary screen, dynein cargo transport inhibitor project, imaging, high-content, 3617.4 mouse cells (AID 1381)
Conditions: measured here: nuclear GR-EGFP intensity, at 20 µM, stronger effect = lower value, stimulated with dexamethasone, 1 µM
Screen size: about 220,000 compounds; about 1,000 (0.45%) were called active. What follows is part of a selection rich in actives, with near analogues and random picks from the rest.
Lab note - cut at 0.3 for z-score: TRUE if strictly below, FALSE if not.

Recorded results for 8 molecules are shown here.
molecule=O=C(/C=C/c1ccccc1)c1ccccc1O label_class=TRUE
molecule=Cn1c2ccccc2c(=O)c2c(=O)n(Cc3ccco3)c(COc3ccccc3)nc21 label_class=TRUE
molecule=Cc1cc(NC(=O)CSc2nc3cc(Cl)ccc3c(=O)n2Cc2ccco2)no1 label_class=FALSE
molecule=Cc1cc(=O)oc2c1c(C)nn2-c1ccc(Cl)cc1 label_class=TRUE
molecule=O=C(Nc1ccccc1Cl)c1ccc2nsnc2c1 label_class=TRUE
molecule=Nn1cnnc1N/N=C/c1cc([N+](=O)[O-])c(Cl)cc1Cl label_class=FALSE
molecule=O=C(CCCOc1ccccc1)NCc1ccco1 label_class=FALSE
molecule=Cc1cccc(C)c1NC1=NC(=S)N(c2ccc(N(C)C)cc2)C1(C)C label_class=FALSE

Req: Record COc1ccc(NC(=S)Nc2ccccc2Cl)cn1 : is its z-score strictly below 0.3?
Resp: TRUE

Req: Record Cc1ccc(O)c(CCc2ccccc2)n1 : is its z-score strictly below 0.3?
Resp: FALSE

Req: Record O=C1/C(=C/c2ccc3c(c2)OCO3)CCC/C1=C\c1ccc2c(c1)OCO2 : is its z-score strictly below 0.3?
Resp: FALSE

Req: Record O=C(CCc1nnc(CCCCc2ccccc2)o1)NC(c1cccnc1)C(F)(F)F (stereo not given) : is its z-score strictly below 0.3?
Resp: TRUE

----------
Test: inhibitors of GR-EGFP nuclear translocation, primary screen, dynein cargo transport inhibitor project, imaging, high-content, 3617.4 mouse cells (AID 1381)
Conditions: measured here: nuclear GR-EGFP intensity, at 20 µM, stronger effect = lower value, stimulated with dexamethasone, 1 µM
The campaign covered roughly 220,000 compounds. About 1,000 (0.45%) were called active. The sample as a whole holds a higher share of actives than the screen did.
Lab note - cut at 0.1 for z-score: condition met if strictly below, condition not met if not.

molecule=CC(=O)NC1(c2ccc(F)cc2)CCN(C(=O)c2c(F)cccc2F)CC1 label_class="condition met"
molecule=C[C@H](NC(=O)OC(C)(C)C)c1nnc(SCC(N)=O)o1 label_class="condition not met"
molecule=S=c1[nH]nc(-c2cccnc2)n1/N=C/C(Cl)=C\c1ccccc1 label_class="condition not met"
molecule="O=C(CC(NC(=O)c1ccccc1)c1ccccc1)Nc1ccc(F)c(F)c1 (stereo not drawn)" label_class="condition met"
molecule=COCCN(Cc1nc(-c2ccc(C(F)(F)F)cc2)no1)C(C)C label_class="condition met"
molecule="O=C(NCC1CCCO1)c1cc(-c2ccccc2)nc2ccccc12 (stereo not drawn)" label_class="condition met"
molecule=CC(=O)Nc1ccc(S(=O)(=O)NCC(=O)OCc2cc(=O)oc3ccc4ccccc4c23)cc1 label_class="condition met"

Proceed to the following item.
Req: Record O=C1c2ccccc2C(=O)N1Cc1cc(-c2ccccc2Cl)no1 : is its z-score strictly below 0.1?
Resp: condition not met
